- testedTarget: Glycogen phosphorylase, muscle form (Oryctolagus cuniculus)
- Sequence (P00489 whole entry): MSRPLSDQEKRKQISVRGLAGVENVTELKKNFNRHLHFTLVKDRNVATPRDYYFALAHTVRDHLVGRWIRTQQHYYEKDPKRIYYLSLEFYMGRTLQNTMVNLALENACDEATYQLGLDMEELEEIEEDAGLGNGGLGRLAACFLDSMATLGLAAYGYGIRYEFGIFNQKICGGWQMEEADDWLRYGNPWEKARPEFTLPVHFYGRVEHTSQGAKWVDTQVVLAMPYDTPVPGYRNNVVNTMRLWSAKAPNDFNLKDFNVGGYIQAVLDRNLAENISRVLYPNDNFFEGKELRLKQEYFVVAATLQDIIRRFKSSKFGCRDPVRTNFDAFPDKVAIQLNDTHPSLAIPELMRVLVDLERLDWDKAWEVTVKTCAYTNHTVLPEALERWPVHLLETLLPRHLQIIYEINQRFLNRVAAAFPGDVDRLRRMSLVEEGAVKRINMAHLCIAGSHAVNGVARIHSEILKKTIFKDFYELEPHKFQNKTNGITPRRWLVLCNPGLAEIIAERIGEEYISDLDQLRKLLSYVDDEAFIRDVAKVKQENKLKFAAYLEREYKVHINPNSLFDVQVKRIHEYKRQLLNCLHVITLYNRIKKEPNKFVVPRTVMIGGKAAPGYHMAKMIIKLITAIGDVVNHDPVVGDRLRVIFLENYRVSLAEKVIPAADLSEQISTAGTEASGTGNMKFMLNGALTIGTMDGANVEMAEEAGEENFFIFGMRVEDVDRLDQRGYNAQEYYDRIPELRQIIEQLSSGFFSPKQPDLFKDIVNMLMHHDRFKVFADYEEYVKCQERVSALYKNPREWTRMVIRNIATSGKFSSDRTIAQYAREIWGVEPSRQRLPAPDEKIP
- protocolSummary: Competitive inhibition of rabbit muscle glycogen phosphorylase-b in presence of varying glucose-1-phosphate levels and AMP
outcomeMeasure: pKi
The value called pKi is obtained by taking minus log10 of the concentration in mol/L.

I am curious: what pKi value has been reported for `O=C1CNC(=S)N1` ?
5.29

* * *

- testedTarget: Glycogen phosphorylase, muscle form (Oryctolagus cuniculus, UniProt P00489)
- protocolSummary: Inhibition of rabbit muscle glycogen phosphorylase-b assessed as release of inorganic phosphate from glucose-1-phosphate in presence of AMP and glycogen
outcomeMeasure: IC50
Hi, when you answer, please include the unit after the number. Thanks!

Under Glycogen phosphorylase, muscle form (Oryctolagus cuniculus, UniProt P00489): IC50 value of `OC[C@H]1O[C@@H](c2cc3ccccc3[nH]2)[C@H](O)[C@@H](O)[C@@H]1O` ?
625 µM
